Ref: ChEMBL document CHEMBL1131091

Target chain: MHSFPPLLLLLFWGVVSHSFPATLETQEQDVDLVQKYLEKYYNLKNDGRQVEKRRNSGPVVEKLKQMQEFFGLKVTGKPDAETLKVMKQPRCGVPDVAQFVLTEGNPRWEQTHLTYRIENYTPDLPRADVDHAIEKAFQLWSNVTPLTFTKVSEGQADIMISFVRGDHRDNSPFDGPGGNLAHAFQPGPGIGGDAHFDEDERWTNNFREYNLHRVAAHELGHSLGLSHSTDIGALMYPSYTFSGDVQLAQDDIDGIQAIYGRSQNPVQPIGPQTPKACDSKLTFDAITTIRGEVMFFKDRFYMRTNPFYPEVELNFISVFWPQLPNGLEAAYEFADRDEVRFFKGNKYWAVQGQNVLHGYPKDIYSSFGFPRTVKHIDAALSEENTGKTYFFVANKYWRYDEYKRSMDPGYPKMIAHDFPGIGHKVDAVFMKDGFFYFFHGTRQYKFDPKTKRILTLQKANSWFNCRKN
Value kind: pIC50
// pIC50 is dimensionless: -log10 of concentration (M)

For the molecule COc1ccc(S(=O)(=O)N2CC3(CN(S(=O)(=O)c4ccc(OC)cc4)C2C(=O)NO)SCCCS3)cc1 , what pIC50 is on record?
7.10
